Tested on: HL-60
assay-details: NCI tumour cell line growth inhibition, 48 h
Activity calls are given as the source filed them. No stated cut-off is given here; in the data, active = GI50 up to about 1.1 µM and inactive = higher.
Outcome (select one): active, inactive

compound	classification
O=C1CN(C(=O)C2CCCN2C(=O)C2CCCN2)C(=O)CN1 (configuration not stated)	inactive

Query string: Recorded test call requested for "CC(C)C(/C=C/c1ccc(Cl)cc1)=N\NC(=O)N/N=C(/C=C/c1ccc(Cl)cc1)C(C)C"
Result string: inactive

Query string: Recorded call for "O=C(CCc1ccc(O)c(O)c1)NCCc1cc(O)cc(O)c1" ?
Result string: inactive

Query string: For "O=C1c2ccsc2C(=O)c2sc(CO)cc21" , which call appears in the assay record?
Result string: active

Query string: Test call, this compound: "CN1CCN(C)C12C=CC=CC21CC1"
Result string: inactive

Query string: Status in this test for OC1CC(O)O[C@H](c2ccccc2)C1 (some centres not stated) ?
Result string: inactive

Query string: Tell me the recorded outcome of this test for "O=C(O)c1cccc(F)c1C(=O)c1ccc2ccccc2c1" .
Result string: inactive

* * *

System: UO-31
assay-details: NCI tumour cell line growth inhibition, 48 h
The source made the active and inactive calls. Rule as the data show it: active = GI50 up to about 1.1 µM and inactive = higher.
// allowed return values: active, inactive

Below, 3 compounds whose answers are already recorded.
compound	classification
CC1OC1C(=O)C1(O)C(C)C(O)C23OC2(C(O)c2c(O)cccc2C3=O)C1O (stereo unspecified)	active
O=C(c1cccc2ccccc12)C1(Br)S(=O)(=O)OCCOS1(=O)=O	inactive
O=C1CN(C(=O)C2CCCN2C(=O)C2CCCN2)C(=O)CN1 (stereo unspecified)	inactive

Query string: # fetch the recorded call for "CCOC(=O)C1=C(O)C(=O)c2cc(OC)ccc2C1=O" here
Result string: inactive

Query string: For this compound, state the assay outcome: "O=C(O)/C=C/n1c2ccccc2c(=O)c2ccccc21"
Result string: inactive

Query string: Write down the call the test reported for this compound. Item: "COc1ccc(/C(Cl)=C/c2cc(OC)ccc2OC)cc1"
Result string: inactive

Query string: For CCC1NCC(=O)c2c1[nH]c1ccccc21 (stereo unspecified) , what call appears in the results of this test?
Result string: inactive

Query string: Look up the recorded call for "CCN(CC)CCn1c(=O)c2cccnc2n2c3c(=O)n(C)c(=O)n(C)c3nc12" in this test.
Result string: inactive

Query string: Hey, what did the test say about CC1CC(N2CCOCC2)=Nc2ccccc2N1C (stereo unspecified) ?
Result string: inactive

Query string: Fill in: this test's call for "CCOc1ccc(/C=C/C(=O)c2sc(NNC(C)=O)nc2C)cc1" is ___
Result string: inactive

Query string: Please state the recorded outcome for this compound: "Cc1cc(C)nc(NS(=O)(=O)c2ccc(Nc3c4ccccc4nc4c(C(=O)N5CCN(CCO)CC5)cccc34)cc2)n1"
Result string: inactive

* * *

Exercise: state measured GI50 for each of the compounds provided.
Test system: RXF 631
assay-details: NCI tumour cell line growth inhibition, 48 h
The source made the active and inactive calls. No stated cut-off is given here; in the data, active = GI50 up to about 1.1 µM and inactive = higher.

compound	GI50
CC(C)(C)OC(=O)N1N=NC2C3CC(=O)C(O3)C21 (centres undefined)	> 100 µM (inactive)
O=C1O[B-](c2ccccc2)(c2ccccc2)[NH2+]C1CS (centres undefined)	50.8 µM (inactive)
NC(=O)C#CC(N)=O	> 100 µM (inactive)
CC(C)N(C(=O)C12C3C4C1C1C4(C#N)C3C12C(=O)O)C(C)C (centres undefined)	> 100 µM (inactive)
CCOc1ccc2nc(NC(=O)C(=O)C(C#N)CC(C)(C)C=O)sc2c1 (centres undefined)	> 100 µM (inactive)
O=C(O)/C=C/n1c2ccccc2c(=O)c2ccccc21	> 100 µM (inactive)
C=C(CN(C)C)C(=O)c1ccc(C)cc1C	20.4 µM (inactive)
C/C(=N\N=C(\N)S)c1ccc(Oc2ccccc2)cc1	13.8 µM (inactive)

Okay, here is my list. What is GI50 for each of these?
1. Cc1cc2c(=O)c3ccc(Cl)cc3[nH]c2c(C(N)=O)c1C
2. O[C@]12CCCC[C@H]1CCC2
3. CC1OC(OC2CCCc3c(O)c4c(c(O)c32)C(=O)c2ccccc2C4=O)CC(N)C1O (centres undefined)
4. COc1nc2nccc-2c2occn12
5. C/C(=N\NC(=S)N1CCCCCC1)c1ccccn1

Result string:
1. > 100 µM (inactive)
2. > 100 µM (inactive)
3. 1.5 µM (inactive)
4. > 100 µM (inactive)
5. 0.0386 µM (active)

Query string: Tell me reported GI50 for NC(CCc1ncc(-c2ccccc2)s1)C(=O)O (centres undefined) , tested with RXF 631.
Result string: > 100 µM (inactive)
